// provenance: patent US20120178701A1

Target: T1, human recombinant melanocortin-4 receptor (human, UniProt P32245 1-332)
T1 construct: whole, on cells; cAMP assays used the whole cells; also called hMC4-R; MC4-R
T1 sequence (P32245 whole entry): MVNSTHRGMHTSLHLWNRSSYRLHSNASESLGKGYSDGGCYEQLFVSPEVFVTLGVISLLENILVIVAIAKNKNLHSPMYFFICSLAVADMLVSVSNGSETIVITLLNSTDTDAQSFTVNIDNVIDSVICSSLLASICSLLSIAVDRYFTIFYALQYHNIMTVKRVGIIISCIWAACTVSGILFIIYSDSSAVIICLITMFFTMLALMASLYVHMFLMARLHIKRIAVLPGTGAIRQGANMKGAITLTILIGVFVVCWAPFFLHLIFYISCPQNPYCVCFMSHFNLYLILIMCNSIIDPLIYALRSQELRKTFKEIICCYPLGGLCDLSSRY
Experiment: competitive inhibition of Eu-NDP-α-MSH (TRF), hMC4-R HEK-293 membranes
Description: After incubation for 90 minutes at 37° C., the reaction was stopped by filtration over AcroWell 96-well filter plates (Pall Life Sciences). The filter plates were washed 4 times with 200 μL of ice-cold phosphate-buffered saline. […] The plates were incubated on a shaker for 15 minutes and read at 340 nm excitation and 615 nm emission wavelengths. […] Ki values were determined by curve-fitting with Graph-Pad Prism® software using a one-site fixed-slope competition binding model. […]
Bridge positions count the residues as written; N and C are the ends. Square brackets hold non-standard residues; d marks the D form. Orn = NCCC[C@H](N)C(=O)O
experimentalReadout: Ki (nM)

Below, 2 binders whose answers are already recorded.
Ac-RE[Orn][dF]RW[Orn]-NH2 (lactam 2-7, also called peptide No. 104) [Ac-Arg-cyclo(Glu-Orn-D-Phe-Arg-Trp-Orn)-NH2] :: 9
RDHFRWK (HELM PEPTIDE1{[ac].R.D.H.[C[C@](Cc1ccccc1)(N[*:1])C(=O)[*:2]].R.W.K.[am]}$PEPTIDE1,PEPTIDE1,3:R3-8:R3$$$V2.0; SMILES CC(=O)N[C@@H](CCCNC(=N)N)C(=O)N[C@H]1CC(=O)NCCCC[C@@H](C(N)=O)NC(=O)[C@H](Cc2c[nH]c3ccccc23)NC(=O)[C@H](CCCNC(=N)N)NC(=O)[C@@](C)(Cc2ccccc2)NC(=O)[C@H](Cc2c[nH]cn2)NC1=O, also called peptide No. 60) [Ac-Arg-cyclo(Asp-His-D-(alpha-Me)Phe-Arg-Trp-Lys)-NH2] :: 47

P = Ac-[dK][Orn]H[dF]RWE-NH2 (lactam 2-7) [Ac-D-Lys-cyclo(Orn-His-D-Phe-Arg-Trp-Glu)-NH2]
Q = Ac-RDA[dF]RWK-NH2 (lactam 2-7, also called peptide No. 9) [Ac-Arg-cyclo(Asp-Ala-D-Phe-Arg-Trp-Lys)-NH2]
Parameter check: reported Ki is higher for which label, P or Q ? Pick one and reply with its label.
Q
